All figures here come from patent US10082496B2.

experiment: S9 half-life; format: in vitro ADME; conditions: S9 fraction; read-out: S9 T1/2
test readout: half-life (min)

CC1CCN(C2CCN(S(=O)(=O)c3cccc4c3OCCO4)CC2)CC1 = 22.6

(a) CC1CCN(C2CCN(S(=O)(=O)c3c(C(C)C)cc(C(C)C)cc3C(C)C)CC2)CC1
(b) C#CCC1CCN(C2CCN(S(=O)(=O)c3ccccc3)CC2)CC1
IN: // max by half-life over [ a , b ] Bench note: the answer is the label of the chosen record.
OUT: a
(a: 59 min, b: 25.2 min)

----------
tested on: DLD-1; experiment: In vitro APC inhibition assay (MTT), DLD-1; assay type: cell-based; settings: Homo sapiens, DLD-1, DLD-1 (truncated APC)
test readout: IC50 (nM)

Sample records with IC50:
Cc1cc(C)c(S(=O)(=O)N2CCC([N+]3(C)CCCC3)CC2)c(C)c1 = 69
CC1CCN(C2CCN(S(=O)(=O)c3ccc4ncsc4c3)CC2)CC1 = 38

(1) CC1CCN(C2CCN(Cc3ccc(OC(F)(F)F)cc3)CC2)CC1
(2) C#CCOc1ccc(N=[N+]=[N-])cc1S(=O)(=O)N1CCC(N2CCC(C)CC2)CC1
IN: // max by IC50 over [ 1 , 2 ] Bench note: the answer is the label of the chosen record.
OUT: 2
(2: 15000 nM, 1: 19 nM)

----------
test system: DLD-1; test: In vitro APC inhibition assay (MTT), DLD-1; assay type: cell-based; conditions: Homo sapiens, DLD-1, DLD-1 (truncated APC)
test readout: IC50 (nM)

CC1CCCN(C2CCN(S(=O)(=O)c3ccc([N+](=O)[O-])cc3)CC2)C1 (stereo not drawn) = 366
C#CCOc1ccc(CN2CCC(N3CCC(C)CC3)CC2)cc1N=[N+]=[N-] = 921
CC1CCN(C2CCN(S(=O)(=O)c3ccc(OC(F)(F)F)c(Br)c3)CC2)CC1 = 29
C#CCC1CCN(C2CCN(S(=O)(=O)c3ccccc3)CC2)CC1 = 18
CC(C)c1cc(C(C)C)c(S(=O)(=O)N2CCC(N3CCCC3)CC2)c(C(C)C)c1 = 374

(P) CC1CCN(C2CCN(S(=O)(=O)c3ccc(OC(F)(F)F)c(C#CCCCCO)c3)CC2)CC1
(Q) C#CCOc1ccc(C(=O)c2ccccc2)cc1S(=O)(=O)N1CCC(N2CCC(C)CC2)CC1
IN: // max by IC50 over [ P , Q ] Bench note: the answer is the label of the chosen record.
OUT: Q

----------
test system: DLD-1; assay: In vitro APC inhibition assay (MTT), DLD-1; assay type: cell-based; details: Homo sapiens; DLD-1 (truncated APC)
test readout: IC50 (nM)
Numeric answer only, unit nM assumed.

IN: Quote IC50 reported for "C[Si](C)(C)C#CCC1CCN(C2CCN(S(=O)(=O)c3ccc(Br)cc3)CC2)CC1" please.
OUT: 2.9

----------
tested on: HCT116 cells; assay: Dose response studies in CRC line HCT116 (wt APC); assay type: cell-based; details: Homo sapiens, HCT-116; read-out: IC50 towards HCT116 cells
pIC50: −log10 of the molar value.
test readout: pIC50

IN: Quote pIC50 reported for COc1ccc(S(=O)(=O)N2CCC(N3CCC(C)CC3)CC2)cc1 [TASIN-1] please.
OUT: < 5.00
